The values you see were collected from patent US20220354811A1.

Task for the reader: assign each of the following compounds its reported IC50.
Target: caspase-8 (Homo sapiens)
Sequence (Q14790 217-374 limits assumed): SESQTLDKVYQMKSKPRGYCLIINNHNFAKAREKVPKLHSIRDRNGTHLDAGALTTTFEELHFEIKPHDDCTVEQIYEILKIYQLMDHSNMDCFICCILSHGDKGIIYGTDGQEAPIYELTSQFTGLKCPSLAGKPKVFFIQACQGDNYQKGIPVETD
Sequence (Q14790 385-479 limits assumed): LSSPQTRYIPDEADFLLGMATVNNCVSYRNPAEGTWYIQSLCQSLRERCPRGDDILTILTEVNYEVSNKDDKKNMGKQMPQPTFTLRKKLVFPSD
Assay: Recombinant caspase-8 activity in vitro (Ac-IETD-AMC substrate)
Assay type: biochemical
Design: using active recombinant proteins of caspase-8 and caspase-3; purchased Enzo life sciences ALX-201-062
Details: recombinant caspase-8, Ac-IETD-AMC
Residues, ends and D or L forms follow the SMILES beside them.
Answers are plain numbers, in nM.

Provide each entry's IC50 from the list below.
1. C[C@H](NC(=O)C(=O)Nc1ccccc1C(C)(C)C)C(=O)N[C@@H](CC(=O)O)C(=O)COc1c(F)c(F)cc(F)c1F
2. CC[C@H](C)[C@H](NC(C)=O)C(=O)N[C@@H](CCC(=O)O)C(=O)N[C@H](C(=O)N[C@H](C=O)CC(=O)O)[C@@H](C)O [Ac-IETD-CHO] (Ac-IETD-aldehyde)

Reply:
12
15
